# TARGET ENTITY: Serine/threonine-protein kinase TAO3 (Homo sapiens, UniProt Q9H2K8); also: in the data inactive means no Kd found up to 30 µM
# Sequence (Q9H2K8 whole entry): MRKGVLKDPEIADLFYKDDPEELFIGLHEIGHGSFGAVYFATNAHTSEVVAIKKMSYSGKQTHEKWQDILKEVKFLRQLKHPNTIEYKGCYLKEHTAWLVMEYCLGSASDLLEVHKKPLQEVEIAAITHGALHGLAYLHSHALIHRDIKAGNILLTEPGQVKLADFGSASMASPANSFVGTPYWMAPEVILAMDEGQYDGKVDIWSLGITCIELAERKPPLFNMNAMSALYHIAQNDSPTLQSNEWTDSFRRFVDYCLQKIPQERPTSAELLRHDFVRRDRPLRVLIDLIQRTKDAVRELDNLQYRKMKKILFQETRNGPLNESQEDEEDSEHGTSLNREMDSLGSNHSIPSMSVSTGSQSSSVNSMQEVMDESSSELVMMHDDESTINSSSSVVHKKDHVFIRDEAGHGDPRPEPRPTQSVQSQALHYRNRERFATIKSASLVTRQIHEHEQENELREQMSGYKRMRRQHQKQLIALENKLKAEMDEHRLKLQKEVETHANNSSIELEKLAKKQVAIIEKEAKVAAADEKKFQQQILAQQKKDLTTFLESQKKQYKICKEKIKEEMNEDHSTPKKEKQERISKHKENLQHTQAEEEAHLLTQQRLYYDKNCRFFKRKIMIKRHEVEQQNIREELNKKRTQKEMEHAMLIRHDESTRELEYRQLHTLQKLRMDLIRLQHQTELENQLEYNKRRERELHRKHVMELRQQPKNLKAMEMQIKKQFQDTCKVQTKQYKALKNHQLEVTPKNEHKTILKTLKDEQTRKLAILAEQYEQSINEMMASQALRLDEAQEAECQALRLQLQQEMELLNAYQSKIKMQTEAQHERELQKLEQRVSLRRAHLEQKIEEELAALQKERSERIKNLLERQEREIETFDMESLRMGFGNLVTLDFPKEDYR
Active and inactive are the calls of the source.
Response enum: active, inactive

Query block: Recorded call for O[C@H]1CC[C@H](Nc2ncc3nc(Nc4c(F)cc(F)cc4F)n([C@H]4CCOC4)c3n2)CC1 [TANZISERTIB] ?
Result block: inactive

Query block: Recorded call for c1cc(OCCN2CCCCC2)cc(-c2n[nH]c3ccc(-c4nc[nH]n4)cc23)c1 [CC-401] ?
Result block: inactive

Query block: Recorded call for COc1cc(Nc2ncc(F)c(Nc3ccc4c(n3)N(COP(=O)(O)O)C(=O)C(C)(C)O4)n2)cc(OC)c1OC [FOSTAMATINIB] ?
Result block: inactive

Query block: Recorded call for COc1cc2nccc(Oc3ccc(NC(=O)C4(C(=O)Nc5ccc(F)cc5)CC4)cc3)c2cc1OC [CABOZANTINIB] ?
Result block: inactive

Query block: Recorded call for O=S(=O)(c1cccc2c(O)nccc12)N1CCCNCC1 [HYDROXYFASUDIL] ?
Result block: inactive

Query block: Recorded call for COc1cc2ncnc(Nc3ccc(F)c(Cl)c3)c2cc1NC(=O)/C=C/CN1CCCCC1 [DACOMITINIB ANHYDROUS] ?
Result block: inactive

Query block: Recorded call for COCCN1CCN(Cc2ccc(-c3n[nH]c4c3C(=O)c3c(NC(=O)NN5CCOCC5)cccc3-4)cc2)CC1 [RGB-286638] ?
Result block: inactive

Now let's try a different one.
Query block: Recorded call for O=c1[nH]c([C@@H]2CCCN2)nc2c1oc1ccc(Cl)cc12 ?
Result block: active

---

# TARGET ENTITY: Uncharacterized protein FLJ45252 (Homo sapiens); also: in the data inactive means no Kd found up to 30 µM
# Sequence (Q6ZSR9 whole entry): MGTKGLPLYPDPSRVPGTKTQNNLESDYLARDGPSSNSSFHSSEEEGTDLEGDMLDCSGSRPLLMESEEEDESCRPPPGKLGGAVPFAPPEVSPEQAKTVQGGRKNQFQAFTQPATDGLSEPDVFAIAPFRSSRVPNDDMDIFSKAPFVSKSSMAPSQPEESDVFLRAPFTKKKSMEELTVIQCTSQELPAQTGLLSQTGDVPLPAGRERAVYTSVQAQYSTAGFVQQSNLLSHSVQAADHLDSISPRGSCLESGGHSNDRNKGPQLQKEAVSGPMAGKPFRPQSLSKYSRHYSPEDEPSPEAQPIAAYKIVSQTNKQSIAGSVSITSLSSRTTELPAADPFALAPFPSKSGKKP
Calls of active or inactive are those of the source.
Response enum: t (active), f (inactive)

Query block: Recorded call for FC(F)(F)c1ccc(CNc2ccc(Cc3c[nH]c4ncc(Cl)cc34)cn2)cn1 [PEXIDARTINIB] ?
Result block: t

New cases:
Query block: Recorded call for CCOc1ccn(-c2ccc(F)cc2)c(=O)c1C(=O)Nc1ccc(Oc2ccnc(N)c2Cl)c(F)c1 [BMS-777607] ?
Result block: f

Query block: Recorded call for C=CC(=O)Nc1cc(Nc2nccc(-c3cn(C)c4ccccc34)n2)c(OC)cc1N(C)CCN(C)C [OSIMERTINIB] ?
Result block: f

Query block: Recorded call for COc1cc2c(Oc3ccc4[nH]c(C)cc4c3F)ncnc2cc1OCCCN1CCCC1 [CEDIRANIB] ?
Result block: f

---

# TARGET ENTITY: Serine/threonine-protein kinase ICK (Homo sapiens, UniProt Q9UPZ9); also: in the data inactive means no Kd found up to 30 µM
# Sequence (Q9UPZ9 whole entry): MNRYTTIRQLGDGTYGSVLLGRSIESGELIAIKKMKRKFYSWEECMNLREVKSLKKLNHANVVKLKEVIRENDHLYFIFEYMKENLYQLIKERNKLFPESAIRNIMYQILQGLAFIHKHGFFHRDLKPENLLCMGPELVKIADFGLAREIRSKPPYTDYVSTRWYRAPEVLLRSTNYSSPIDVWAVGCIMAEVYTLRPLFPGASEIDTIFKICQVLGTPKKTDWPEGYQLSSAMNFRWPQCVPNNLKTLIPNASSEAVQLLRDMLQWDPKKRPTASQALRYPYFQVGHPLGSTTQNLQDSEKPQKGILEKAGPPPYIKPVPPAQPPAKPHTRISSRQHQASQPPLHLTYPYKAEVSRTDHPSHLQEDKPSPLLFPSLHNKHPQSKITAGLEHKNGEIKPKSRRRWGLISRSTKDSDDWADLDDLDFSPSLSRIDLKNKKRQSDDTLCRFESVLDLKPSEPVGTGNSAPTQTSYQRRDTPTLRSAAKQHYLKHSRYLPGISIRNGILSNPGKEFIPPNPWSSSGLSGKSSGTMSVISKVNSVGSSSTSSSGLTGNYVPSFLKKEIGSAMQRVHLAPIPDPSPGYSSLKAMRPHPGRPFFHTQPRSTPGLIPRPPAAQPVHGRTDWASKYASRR
The source made the active and inactive calls.
Response enum: yes (active), no (inactive)

Query block: Recorded call for CC(C)CC(=O)Nc1[nH]nc2c1CN(C(=O)C1CCN(C)CC1)C2(C)C ?
Result block: no

Query block: Recorded call for O=C(NOC[C@H](O)CO)c1ccc(F)c(F)c1Nc1ccc(I)cc1F ?
Result block: no

New cases:
Query block: Recorded call for COc1cc2ncnc(Nc3ccc(F)c(Cl)c3)c2cc1NC(=O)/C=C/CN1CCCCC1 [DACOMITINIB ANHYDROUS] ?
Result block: no

Query block: Recorded call for COc1cc(Nc2ncc(F)c(Nc3ccc4c(n3)N(COP(=O)(O)O)C(=O)C(C)(C)O4)n2)cc(OC)c1OC ?
Result block: no

Query block: Recorded call for C=CC(=O)Nc1cccc(Nc2nc(Nc3ccc(N4CCN(C(C)=O)CC4)cc3OC)ncc2C(F)(F)F)c1 ?
Result block: no

Query block: Recorded call for O[C@H]1CC[C@H](Nc2ncc3nc(Nc4c(F)cc(F)cc4F)n([C@H]4CCOC4)c3n2)CC1 ?
Result block: no

Query block: Recorded call for C[C@@H]1COC(Nc2ccc3ncnc(Nc4ccc(OCc5nccs5)c(Cl)c4)c3c2)=N1 ?
Result block: no

---

# TARGET ENTITY: DNA topoisomerase 2-alpha (Homo sapiens); also: in the data inactive means no Kd found up to 30 µM
# Sequence (P11388 whole entry): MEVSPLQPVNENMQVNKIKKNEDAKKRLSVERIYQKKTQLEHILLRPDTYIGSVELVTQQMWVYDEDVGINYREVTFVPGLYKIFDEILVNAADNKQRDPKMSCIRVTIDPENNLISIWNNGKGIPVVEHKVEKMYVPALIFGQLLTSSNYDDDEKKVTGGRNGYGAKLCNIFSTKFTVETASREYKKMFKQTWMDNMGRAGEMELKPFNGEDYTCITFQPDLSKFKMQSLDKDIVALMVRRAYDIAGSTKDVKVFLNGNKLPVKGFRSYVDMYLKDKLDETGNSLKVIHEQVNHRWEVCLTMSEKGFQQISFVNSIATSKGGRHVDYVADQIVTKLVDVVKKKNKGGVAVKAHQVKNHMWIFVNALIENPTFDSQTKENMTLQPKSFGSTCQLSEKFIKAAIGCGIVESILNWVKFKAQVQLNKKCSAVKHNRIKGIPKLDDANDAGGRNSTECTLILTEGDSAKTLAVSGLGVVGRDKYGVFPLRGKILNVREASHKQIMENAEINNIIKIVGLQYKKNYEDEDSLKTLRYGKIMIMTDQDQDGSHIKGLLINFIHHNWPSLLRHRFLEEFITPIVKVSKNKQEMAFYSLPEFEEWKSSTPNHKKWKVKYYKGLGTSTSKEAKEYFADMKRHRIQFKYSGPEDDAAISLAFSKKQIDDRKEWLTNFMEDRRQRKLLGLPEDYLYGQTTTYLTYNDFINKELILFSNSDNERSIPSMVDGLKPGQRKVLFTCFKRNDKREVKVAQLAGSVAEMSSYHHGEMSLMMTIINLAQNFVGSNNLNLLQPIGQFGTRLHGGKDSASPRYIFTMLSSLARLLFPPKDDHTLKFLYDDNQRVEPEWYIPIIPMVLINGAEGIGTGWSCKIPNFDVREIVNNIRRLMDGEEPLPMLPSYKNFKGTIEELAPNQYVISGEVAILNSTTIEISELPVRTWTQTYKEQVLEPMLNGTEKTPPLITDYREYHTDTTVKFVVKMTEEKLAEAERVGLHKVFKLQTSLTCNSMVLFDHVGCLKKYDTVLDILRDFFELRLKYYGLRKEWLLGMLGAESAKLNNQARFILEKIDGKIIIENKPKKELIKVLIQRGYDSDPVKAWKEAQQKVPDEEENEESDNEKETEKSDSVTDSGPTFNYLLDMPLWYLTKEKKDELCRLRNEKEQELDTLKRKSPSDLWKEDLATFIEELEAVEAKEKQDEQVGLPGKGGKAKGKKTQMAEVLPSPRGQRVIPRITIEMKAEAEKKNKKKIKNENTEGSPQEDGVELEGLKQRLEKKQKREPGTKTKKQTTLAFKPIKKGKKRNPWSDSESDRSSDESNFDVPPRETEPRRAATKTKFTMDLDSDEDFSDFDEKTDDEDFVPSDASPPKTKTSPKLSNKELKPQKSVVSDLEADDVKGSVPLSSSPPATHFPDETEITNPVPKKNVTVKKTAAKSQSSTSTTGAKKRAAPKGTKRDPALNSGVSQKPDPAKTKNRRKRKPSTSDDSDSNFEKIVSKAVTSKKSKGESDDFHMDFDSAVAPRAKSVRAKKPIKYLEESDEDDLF
Calls of active or inactive are those of the source.
PROPERTY: Kd

Completed entries (count: 2):
Field Kd (DNA topoisomerase 2-alpha (Homo sapiens)), entry O=S(=O)(c1cccc2cnccc12)N1CCCNCC1 : > 30 µM (inactive)

Field Kd (DNA topoisomerase 2-alpha (Homo sapiens)), entry C=CC(=O)Nc1cc(Nc2nccc(-c3cn(C)c4ccccc34)n2)c(OC)cc1N(C)CCN(C)C : > 30 µM (inactive)

We now examine a further compound.
Field Kd (DNA topoisomerase 2-alpha (Homo sapiens)), entry NC(=O)c1ccc(N(C(N)=O)c2c(F)cccc2F)nc1-c1ccc(F)cc1F : > 30 µM (inactive)

---

# TARGET ENTITY: Beta-adrenergic receptor kinase 1 (Homo sapiens, UniProt P25098); also: in the data inactive means no Kd found up to 30 µM
# Sequence (P25098 whole entry): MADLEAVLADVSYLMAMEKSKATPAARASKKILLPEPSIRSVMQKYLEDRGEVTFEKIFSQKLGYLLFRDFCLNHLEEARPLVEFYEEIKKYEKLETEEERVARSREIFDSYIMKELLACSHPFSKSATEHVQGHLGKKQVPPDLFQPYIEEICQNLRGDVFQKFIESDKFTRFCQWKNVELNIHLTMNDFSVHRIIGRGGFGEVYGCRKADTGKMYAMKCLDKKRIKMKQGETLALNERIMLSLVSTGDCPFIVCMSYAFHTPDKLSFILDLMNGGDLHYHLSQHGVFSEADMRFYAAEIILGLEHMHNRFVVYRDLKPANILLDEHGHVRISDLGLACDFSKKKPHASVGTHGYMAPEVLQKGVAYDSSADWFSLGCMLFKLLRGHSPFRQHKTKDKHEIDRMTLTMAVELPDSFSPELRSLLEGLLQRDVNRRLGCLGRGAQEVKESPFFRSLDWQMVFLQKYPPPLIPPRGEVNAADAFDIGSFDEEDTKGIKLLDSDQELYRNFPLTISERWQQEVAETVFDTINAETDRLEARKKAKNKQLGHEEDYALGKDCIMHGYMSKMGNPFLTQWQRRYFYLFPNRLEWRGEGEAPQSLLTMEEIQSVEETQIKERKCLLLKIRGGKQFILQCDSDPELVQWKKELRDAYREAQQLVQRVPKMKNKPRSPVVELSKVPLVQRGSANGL
Activity calls are given as the source filed them.
PROPERTY: Kd

Completed entries (count: 3):
The molecule listed as CNC(=O)c1cccc(-c2ccc3c(N4CCOC[C@@H]4C)nc(N4CCOC[C@@H]4C)nc3n2)c1 [VISTUSERTIB] shows Kd equal to > 30 µM (inactive)

The molecule listed as C=CC(=O)Nc1cc(Nc2nccc(-c3cn(C)c4ccccc34)n2)c(OC)cc1N(C)CCN(C)C [OSIMERTINIB] shows Kd equal to > 30 µM (inactive)

The molecule listed as COc1cccc2cc(-c3nc([C@H]4CC[C@H](C(=O)O)CC4)n4ncnc(N)c34)[nH]c12 [OSI-027] shows Kd equal to > 30 µM (inactive)

We now examine a further molecule.
The molecule listed as COc1cc2c(Oc3ccc4[nH]c(C)cc4c3F)ncnc2cc1OCCCN1CCCC1 [CEDIRANIB] shows Kd equal to > 30 µM (inactive)
